Measured IC50 by item
Tested on: HCT116-MTAP-KO cells (HCT116 MTAP null)
protocolText: Proliferation inhibition of HCT116 MTAP-KO cells in vitro (CellTiter Glo)
Format: cell-based
conditionContext: HCT116-MTAP null, 144 h, 6 days, 9 concentrations starting from 3 μM, read-out: Cell proliferation inhibition rate HCT116 MTAP null IC50 (nm)
outcomeMeasure: IC50

{"columns": ["molecule", "outcomeMeasure", "observedMeasurement"],
 "data": [
  ["Cc1cn(C)nc1N(Cc1ccc(C(F)(F)F)cn1)C(=O)c1cc2c(cc1F)nc(N)c1cnc(C)n12", "IC50", "< 0.1 µM"],
  ["Cc1nn(C)cc1N(Cc1ccc(OC2CC2)cn1)C(=O)c1cc2c(cc1F)nc(N)c1c(C)ncn12", "IC50", "< 0.1 µM"],
  ["Cc1ncc2c(N)nc3cc(F)c(C(=O)N(Cc4cnc(C5CC5)n4C)c4ccnn4C)cc3n12", "IC50", "0.1 to 1 µM"],
  ["Cc1ncn2c1c(N)nc1ccc(C(=O)N(Cc3nc(-c4ncccn4)cs3)CC(C)C)cc12", "IC50", "< 0.1 µM"],
  ["Cc1ncn2c1c(N)nc1ccc(C(=O)N(Cc3nc(-c4cccnn4)cs3)CC(C)C)cc12", "IC50", "0.1 to 1 µM"],
  ["C[C@@H]1COC[C@H](c2cn3ccccc3n2)N1C(=O)c1ccc2nc(N)c3cnn(C)c3c2c1", "IC50", "0.1 to 1 µM"],
  ["Cc1ncc2c(N)nc3cc(F)c(C(=O)N4C(C)COCC4c4cnc(C(F)(F)F)s4)cc3n12 (stereo not drawn)", "IC50", "< 0.1 µM"],
  ["Cc1ncc2c(N)nc3cc(F)c(C(=O)N(Cc4ccc(S(F)(F)(F)(F)F)cc4)c4ccnn4C)cc3n12", "IC50", "< 0.1 µM"],
  ["CCOc1ccc(CN(C(=O)c2cc3c(cc2F)nc(N)c2c(C)ncn23)c2cn(C)nc2C)nc1", "IC50", "< 0.1 µM"],
  ["Cc1nn(C)cc1N(Cc1ccc(C(F)(F)F)cn1)Cc1cc2c(cc1F)nc(N)c1cnc(C)n12", "IC50", "< 0.1 µM"],
  ["CCOc1ccc(CN(C(=O)c2cc3c(cc2F)nc(N)c2cnc(C)n23)c2ccnn2C)nc1", "IC50", "< 0.1 µM"],
  ["COc1ccc(C2COCC(C)N2C(=O)c2cc3c(cc2F)nc(N)c2c(C)ncn23)nn1 (stereo not drawn)", "IC50", "0.1 to 1 µM"],
  ["Cc1ncn2c1c(N)nc1cc(F)c(C(=O)N3C(C)COCC3c3ccc(C(F)(F)F)cc3)cc12 (stereo not drawn)", "IC50", "< 0.1 µM"],
  ["Cc1ncc2c(N)nc3cc(F)c(C(=O)N(Cc4ccc(C(F)(F)F)cn4)c4cnnn4C)cc3n12", "IC50", "< 0.1 µM"],
  ["Cc1ncc2c(N)nc3cc(F)c(C(=O)N(Cc4ccc(C(F)(F)F)nn4)c4ccnn4C)cc3n12", "IC50", "< 0.1 µM"]
]}
